Cited source for all entries: PubChem BioAssay (NCI)

Tested on: TK-10 renal
Assay: NCI tumour cell line growth inhibition, 48 h
parameter.measured: TGI

Take a look at these entries with their results.
1. Cn1c(=O)cc(NNc2ccc(Br)cc2)[nH]c1=O    34.9 µM
2. COc1c(OC(C)=O)c(OC(C)=O)cc2c1-c1ccc(OC)c(=O)cc1C(NC(C)=O)CC2 (stereo not given)    > 100 µM

Prompt line: Request: TGI, test system TK-10 renal, entry OC(c1ccc(F)cc1)C(F)(F)c1nc(-c2ccccc2)no1 (stereo not given)
Response line: > 100 µM

Prompt line: Next record, please: CN(C)c1ccccc1CC(c1c[nH]c2ccccc12)c1c[nH]c2ccccc12
Response line: 29.9 µM

Prompt line: Next record, please: CC1(C)CC(=O)C(CC(C(=O)C(=O)Nc2cc(C(F)(F)F)ccc2Cl)C(=O)c2ccco2)C(=O)C1 (stereo not given)
Response line: > 100 µM

Prompt line: Next record, please: Cc1cc(=O)oc2c(CNC(C)C(=O)O)c(O)ccc12 (stereo not given)
Response line: > 100 µM

Prompt line: Next record, please: CC1=NN(c2nc(N)nc(C(C)Sc3cc(Cl)c(C)cc3S(N)(=O)=O)n2)C(C)(C)C1 (stereo not given)
Response line: > 10 µM

Prompt line: Next record, please: CCOC(=O)C1=C(N)Oc2c(sc3c(C)cccc23)C1c1ccc(Cl)cc1 (stereo not given)
Response line: 29.1 µM

Prompt line: Next record, please: Cn1c(=O)oc2cc(C(=S)N3CCC(Cc4ccccc4)CC3)ccc21
Response line: > 100 µM

Prompt line: Next record, please: Oc1ccc2ccccc2c1-c1c(Nc2ccccc2)ccc2ccccc12
Response line: 32.1 µM

Prompt line: Next record, please: Nc1ncnc2c1c(-c1cccc(OCc3ccccc3)c1)cn2C1CC(CN2CCCC2)C1 (stereo not given)
Response line: 5.05 µM

Prompt line: Next record, please: Oc1ccc(-c2c3ccccc3c(-c3ccc(OCCBr)cc3)c3ccccc23)cc1
Response line: 99.2 µM

Prompt line: Next record, please: COC1OCC(OS(=O)(=O)c2ccc(C)cc2)C(OC(=O)c2ccccc2)C1OC(=O)c1ccccc1 (stereo not given)
Response line: > 100 µM

Prompt line: Next record, please: COc1ccc(OC)c(C2CCCc3c2cnc2nc(N)nc(N)c32)c1 (stereo not given)
Response line: > 100 µM
